- measurement target: T1, native IHFNTHI (integration host factor of nontypeable Haemophilus influenzae) (nontypeable Haemophilus influenzae …, UniProt P43723 1-96; P43724 1-94)
- T1 construct: also called NTHI IHF
- T1 sequence 1: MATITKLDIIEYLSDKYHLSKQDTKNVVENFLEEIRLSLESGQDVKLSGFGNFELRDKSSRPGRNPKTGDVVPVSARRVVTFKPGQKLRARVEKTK
- T1 sequence 2: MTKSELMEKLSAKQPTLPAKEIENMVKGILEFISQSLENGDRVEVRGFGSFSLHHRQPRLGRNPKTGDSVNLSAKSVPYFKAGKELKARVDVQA
- assay explanation: SPR Biacore 3000, HuMab immobilized, IHFNTHI as analyte
attribute measured: kon (M⁻¹ s⁻¹)

1. humanized anti-tail monoclonal antibody, heavy chain SEQ ID NO: 4 and light chain SEQ ID NO: 10 (antibody, V domains shown, also called HuTailMab; TP-21958) VH: EVQLVESGGGLVKPGGSLRLSCAASGFTFSRYGMSWVRQAPGKGLEWVATISSGGSYTYYTDSVKGRFTISRDNAKNSLYLQMNSLRAEDTAVYYCERHGGDGYWYFDVWGQGTMVTVSS VL: DIQMTQSPSSLSASVGDRVTITCRASQDISNYLNWYQQKPGKAVKLLIYYTSRLHSGVPSRFSGSGSGTDYTLTISSLQPEDFATYFCQQGNPLRTFGGGTKVEIKR
77000
2. humanized anti-tail monoclonal antibody, heavy chain SEQ ID NO: 6 and light chain SEQ ID NO: 12 (antibody, V domains shown, also called H10215 (11E7.C7 Humanized HC3) + L10215 (11E7.C7 Humanized LC3)) VH: EVQLVESGGGLVQPGRSLRLSCTASGFTFSRYGMSWVRQAPGKGLEWVATISSGGSYTYYTDSVKGRFTISRDNAKNILYLQMNSLKTEDTAVYYCERHGGDGYWYFDVWGQGTMVTVSS VL: DIVMTQSPATLSLSPGERATLSCRASQDISNYLNWYQQKPGQAVRLLIYYTSRLHSGIPARFSGSGSGTDYTLTISSLEPEDFAVYFCQQGNPLRTFGGGTKVEIKR
7700
3. humanized anti-tail monoclonal antibody, heavy chain SEQ ID NO: 5 and light chain SEQ ID NO: 12 (antibody, V domains shown, also called H10214 (11E7.C7 Humanized HC2) + L10215 (11E7.C7 Humanized LC3)) VH: EVQLVESGGGLVKPGGSLRLSCAASGFTFSRYGMSWVRQAPGKGLEWVSTISSGGSYTYYTDSVKGRFTISRDNAKNSLYLQMNSLRAEDTAVYYCERHGGDGYWYFDVWGQGTMVTVSS VL: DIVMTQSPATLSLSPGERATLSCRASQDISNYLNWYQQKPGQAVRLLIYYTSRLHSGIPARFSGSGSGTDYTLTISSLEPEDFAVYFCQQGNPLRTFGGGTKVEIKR
33000
